# System: CAL-120
# procedure_text: normalised response (% of control), CellTiter-Glo; higher = more viable cells (100 = DMSO, 0 = benzethonium chloride kill control)
# study_conditions: incubation time: 72 h
Known normalised response of a selection of molecules

Which measured normalised response value corresponds to C[C@@H](C(=O)O)c1ccc(-c2ccccc2)c(F)c1 [Tarenflurbil] (1 nM) ?
98.1%

Which measured normalised response value corresponds to Cc1c(C(=O)Nc2ccc(N3C[C@@H](C)O[C@@H](C)C3)nc2)cccc1-c1ccc(OC(F)(F)F)cc1 [Erismodegib] (10 nM) ?
91.7%

Which measured normalised response value corresponds to CCc1c(C(=O)C(N)=O)c2c(OCC(=O)O)cccc2n1Cc1ccccc1 [Varespladib] (1000 nM) ?
98.2%
